Where these numbers come from: ChEMBL document CHEMBL4033730

# TESTED_TARGET: Mushroom tyrosinase (Agaricus bisporus, UniProt O42713+Q00024+C7FF04+C7FF05)
# EXPERIMENT_NOTES: Competitive inhibition of Agaricus bisporus tyrosinase assessed as reduction in diphenolase activity by measuring L-DOPA oxidation at 1.6 mM after 30 mins by Lineweaver-Burk plot
ATTRIBUTE_MEASURED: Ki (µM)

INSERT INTO results (substance_smiles, readout_number) VALUES
  ('COc1cc(/C=N/NC(N)=S)ccc1O', 60);

a: CCOc1ccc(/C=N/NC(N)=S)cc1
b: NC(=S)N/N=C/c1ccc(NC(=S)N/N=C/c2ccccn2)cc1
c: NC(=S)N/N=C/c1ccc(Cl)cc1
Task: Place the items in sequence of falling Ki. // list labels; follow requested order
Result: c, b, a
(c: 1300 µM, b: 200 µM, a: 60 µM)
